Target of assay: Luciferin 4-monooxygenase (Photinus pyralis)
Experimental details: Biochemical firefly luciferase enzyme assay for NPC (AID 624030);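 note: purified P. pyralis luciferase at 10 nM with luciferin and ATP substrate; 0% = DMSO and -100% = full luciferase inhibition by PTC124 control; nearly all actives have a fitted effect of over 70% in size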
Test settings: purified P. pyralis luciferase, luminescence, 5 min; series mostly up to 58.6 µM
Records with an inconclusive call do not appear. The source made the active and inactive calls. Calls come from the whole dose curve; as a rule, active = well fitted inhibition curve with a large enough effect; inconclusive = small, poorly fitted or top-dose-only effect; inactive = flat fitted curve, though single readings scatter.
Recorded metric: outcome

Example compounds with recorded outcome:
Lab note: measured outcome of C/C(=C(/CCO)SS/C(CCO)=C(\C)N(C=O)Cc1cnc(C)nc1N)N(C=O)Cc1cnc(C)nc1N was inactive

For this compound ( C#C[C@@]1(O)CC[C@@H]2[C@H]3CCC4=C/C(=N\O)CC[C@H]4[C@@H]3CC[C@]21CC ), measured outcome is inactive

outcome recorded for this compound, CO/N=C(/C(=O)N[C@@H]1C(=O)N2C(C(=O)O)=C(CSc3cnns3)CS[C@H]12)c1csc(N)n1 , is inactive

So for CCC1OC(=O)C[C@@H](O)[C@H](C)[C@@H](OC2OC(C)CC(N(C)C)C2O)[C@@H](CC=O)C[C@@H](C)C(=O)/C=C/[C@]2(C)OC2C1C (stereo partly drawn) , the logged outcome turned out to be inactive

Attention now shifts to the item below.
C=CCN1CC(C(=O)N(CCCN(C)C)C(=O)NCC)CC2c3cccc4[nH]cc(c34)CC21 (stereo not drawn) yielded outcome of inactive

* * *

Experimental details: NFAT Signaling Pathway (AID 444);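 note: carbachol stimulus at about its EC50 of 1 µM final; % is set by controls: 0 for no effect and ±100 for the full control effect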
Test settings: Jurkat NFAT-bla M1, carbachol, beta-lactamase ratio, 5 h; at 17.2 µM (top of the series) unless noted
Experimental: NCGC Assay Overview: The nuclear factor of activated T cells (NFAT) family of transcription factors has been found primarily in most immune system cells and some other non-immune cells. NFAT plays the immunomodulatory role, primarily in T-cell activation and differentiation. […] NCGC Assay Protocol Summary: The cells were prepared in RPMI 1640 medium containing 0.1% dialyzed FBS and 25 mM HEPES at 1.6 x 10^6cell/ml. […] The %Activity was determined from the ratio of 460nm/530nm. […]
Records with an inconclusive call do not appear. Active and inactive are the calls of the source. Calls follow the shape of the dose curve; as a rule, active = well fitted curve in either direction with a large enough effect (not every such curve was filed as active); inconclusive = small, poorly fitted or top-dose-only effect, or another doubt; inactive = flat fitted curve, though single readings scatter.
Reported activity change, negative = inhibition values for a set of compounds

Consider the worked cases shown below.
The reported value for O=CN1CCN(C(=O)CN2C(=O)c3ccccc3C2=O)CC1 in terms of activity change, negative = inhibition is 11.9% (inactive)

Per the records, this compound ( COc1ccccc1Cn1c2nc3ccccc3nc2c2c(=O)n(CC(C)C)cnc21 ) has activity change, negative = inhibition equal to 4.7% (inactive)

# activity change, negative = inhibition of COc1ccc(CSc2nnc(C)n2N)cc1Br = -3.73% (inactive)

---
# compound N#CC12CCCCC1CC1CCCCC1(C#N)N2Cc1ccccn1 (stereo not drawn) ; its activity change, negative = inhibition = -14.8% (inactive)

Record summary for c1ccc2c(c1)[nH]c1c(N3CCSCC3)ncnc12 : reported activity change, negative = inhibition = -20.2% (inactive)

Lookup result for Cc1onc(-c2ccccc2Cl)c1C(=O)N1CCN(c2nc3ccccc3s2)CC1 ; measured activity change, negative = inhibition: -4.08% (inactive)

Record N[C@H](Cc1ccc(F)cc1)C(=O)O , field activity change, negative = inhibition: -1.52% [at 38 µM] (inactive)

Consider CSc1nc2sc3c(c2c2nnnn12)CCC3 . Its measured activity change, negative = inhibition is -14.8% (inactive)

* * *

Experimental details: Cell Viability - BJ (AID 421);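 note: cells exposed to compound for 40 hours at 37 °C before readout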
Test settings: BJ fibroblast viability, qHTS
Records with an inconclusive call do not appear. Calls of active or inactive are those of the source. The call rests on the fitted dose curve.
Permitted responses: active, inactive

// param item: O=C(/C=C/c1ccc(O)c(O)c1)OC1C[C@](O)(C(=O)O)C[C@@H](O)[C@H]1O (stereo not given in full) ; yields the recorded call
inactive

Short answer needed: outcome of this test for C=CC(=O)OCCOCCOC(=O)C=C ?
active

Would you mind telling me which call this test gave C=CC(=O)OCC(CO)(COC(=O)C=C)COC(=O)C=C ?
inactive

***
Which outcome did this test record for the compound Oc1ccc2cc(SSc3ccc4cc(O)ccc4c3)ccc2c1 ?
active

Which outcome was assigned to CO[C@H]1/C=C/O[C@@]2(C)Oc3c(C)c(O)c4c(O)c(c5c(c4c3C2=O)NC2(CCN(CC(C)C)CC2)N=5)=NC(=O)/C(C)=C\C=C\[C@H](C)[C@H](O)[C@@H](C)[C@@H](O)[C@@H](C)[C@H](OC(C)=O)[C@@H]1C in this test?
inactive

Called result for c1cc(OCC2CO2)cc(OCC2CO2)c1 (stereo not given)
active

Please share the test call associated with Cc1cccc(O)c1C .
inactive

Outcome logged for CN1[C@H]2CC(OC(=O)[C@H](CO)c3ccccc3)C[C@H]1[C@H]1O[C@H]12 (stereo not given in full) in this assay:
inactive

GET /call?item= CC/C(=C(\c1ccccc1)c1ccc(OCCN(C)C)cc1)c1ccc(O)cc1 returns the recorded outcome of this test.
active

Record request — test call for c1ccc2c(c1)-c1cccc3c1c-2cc1ccccc13
inactive

For this compound, state the assay outcome: Nc1ccc2cc3ccccc3cc2c1
inactive

# outcome recorded in this test, key = CN(C)c1ccc(C2(c3ccc(N(C)C)cc3)OC(=O)c3cc(N(C)C)ccc32)cc1
inactive

Recorded call for ClC1=C(Cl)C(Cl)(Cl)C(Cl)=C1Cl ?
inactive

Name the outcome recorded for c1ccc2c(c1)ccc1cc3c(ccc4ccccc43)cc12 in the assay.
inactive

Each compound tested received a call. Report the one for O=C(OCC(COC(=O)c1ccccc1)(COC(=O)c1ccccc1)COC(=O)c1ccccc1)c1ccccc1 .
inactive

* * *

Experimental details: AP1 Signaling Pathway (AID 357);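 note: ME-180 reporter cells stimulated with EGF at its EC50 level; % is set by controls: 0 for no effect and ±100 for the full control effect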
Test settings: ME-180 AP-1-bla reporter, EGF-induced, beta-lactamase ratio, 5 h; at 17.2 µM (top of the series) unless noted
Inconclusive results are not listed.
Recorded metric: activity change, negative = inhibition (%)
Your answer is read as %, so omit the unit and give the number.

Worked cases, activity change, negative = inhibition given:
The reported value for CCCCc1cc(=O)oc2c(CN3CCCC3)c(O)ccc12 in terms of activity change, negative = inhibition is 9.79

Item: O=C(c1ccc(=O)oc1)N1CCN(C(c2ccccc2)c2ccccc2)CC1 | activity change, negative = inhibition: 26.4

Input COC(=O)c1ccc(CSc2ncnc3c2sc2nc(N4CCOCC4)c4c(c23)CCCC4)o1 . Output activity change, negative = inhibition: 20.1

For record CCOc1nnnc2c1sc1nc(N3CCOCC3)c3c(c12)CC(C)(C)OC3 the listed activity change, negative = inhibition is -7.69

# activity change, negative = inhibition of CN(C)c1nc2n(c(=S)n1)CCS2 = 11.5

Continue with the next compound.
Noted for CN1CCN(C(=O)CSc2nc(-c3cccs3)ccc2C#N)CC1 : its activity change, negative = inhibition reads -11

* * *

Test system: CP194
Experimental details: qHTS profiling for inhibitors of Plasmodium falciparum proliferation (AID 504749); note: nearly all actives have a fitted effect of over 60% in size
Test settings: P. falciparum in erythrocytes, SYBR Green DNA, 72 h; series mostly up to 28.7 µM
Inconclusive results are not listed. The source made the active and inactive calls. The call rests on the fitted dose curve; in most records, active means well fitted inhibition curve with a large enough effect; inconclusive means small, poorly fitted or top-dose-only effect; inactive means flat fitted curve, though single readings scatter.
Answer with one of the outcomes given here: active, inactive

Each compound tested received a call. Report the one for C/C=C\C[C@H](C)[C@H](O)[C@H]1C(=O)N[C@@H](CC)C(=O)N(C)CC(=O)N(C)[C@@H](CC(C)C)C(=O)N[C@@H](C(C)C)C(=O)N(C)[C@@H](CC(C)C)C(=O)N[C@@H](C)C(=O)N[C@@H](C)C(=O)N(C)[C@@H](CC(C)C)C(=O)N(C)[C@@H](CC(C)C)C(=O)N(C)[C@@H](C(C)C)C(=O)N1C .
active

// outcome(item) with item = C=C1CCC(O)C/C1=C/C=C1\CCC[C@]2(C)[C@@H]([C@H](C)/C=C/[C@H](C)C(C)C)CC[C@@H]12 (stereo partly specified)
inactive

Call for entry CNC1C(O)C(OC2C(N)CC(N)C(OC3OC(CN)=CCC3N)C2O)OCC1(C)O (stereo unspecified) :
inactive

Record request — test call for CC1=C(/C=C/C(C)=C\C=C\C(C)=C\C=C\C=C(C)\C=C\C=C(C)\C=C\C2=C(C)C[C@@H](O)CC2(C)C)C(C)(C)C[C@H](O)C1
inactive

Call for entry CO/N=C(/C(=O)N[C@@H]1C(=O)N2C(C(=O)O)=C(CSc3nc(C)c(CC(=O)O)s3)CS[C@H]12)c1csc(N)n1 :
inactive

Which outcome did this test record for the compound O=C(NC(CO)C(O)c1ccc([N+](=O)[O-])cc1)C(Cl)Cl (stereo unspecified) ?
inactive

* * *

activity, negative = inhibition for assorted molecules
Experimental details: Stat Signaling Pathway (AID 446);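 note: ME-180 cervical cancer cells given 40 pM IL-6 alongside compound; SIE-controlled beta-lactamase reporter measured as 460/530 nm FRET emission ratio; % is set by controls: 0 for no effect and ±100 for the full control effect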
Test settings: ME-180 (cervical carcinoma) SIE beta-lactamase reporter, IL-6 stimulated, 5 h; at 17.2 µM (top of the series) unless noted
Records with an inconclusive call do not appear. Calls of active or inactive are those of the source. The call rests on the fitted dose curve; in most records, active means well fitted curve in either direction with a large enough effect (not every such curve was filed as active); inconclusive means small, poorly fitted or top-dose-only effect, or another doubt; inactive means flat fitted curve, though single readings scatter.

These solved cases illustrate the format of a correct answer.
Field activity, negative = inhibition (entry CN(C)c1nc2n(c(=O)n1)C(C#N)CS2 (stereo unspecified) ) reads 5.84% (inactive)

Given item CN1C(=O)c2ccc(N(C)C)cc2C1=O , the value recorded as its activity, negative = inhibition is 1.02% (inactive)

Sure, the documented activity, negative = inhibition for Cn1c(=O)[nH]c(=O)c2c1nc(N(CCO)Cc1ccccc1)n2Cc1ccccc1Cl is -4.12% (inactive)

Short answer for CCCCOC(=O)c1ccc(NC(=O)CSc2nncn2C)cc1 : activity, negative = inhibition was 4.52% (inactive)

Quick note, activity, negative = inhibition for NC(=O)/C(=C\c1ccncc1)c1cccc2ccccc12 landed at -3.8% [at 7.69 µM] (inactive)

Okay, next one:
Measured activity, negative = inhibition, Clc1ccc(-c2nnc3sc(Cc4cccs4)nn23)c(Cl)c1 : 12.6% (inactive)
